B1: Hairpin Ribozyme (parent)
chain: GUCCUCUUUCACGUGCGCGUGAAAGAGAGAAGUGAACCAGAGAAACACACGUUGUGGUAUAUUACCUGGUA

Variants of: B1
Test: self-cleavage, relative activity (ratio to wild type); higher = more cleavage; co-transcriptional
I would appreciate it if you labelled entries fulfilled when self-cleavage is 0.2 or higher, otherwise not fulfilled.

{"columns": ["VARIANT_NOTATION", "CLASS"],
 "data": [
  ["G29U G69C", "not fulfilled"],
  ["U9G U60A", "fulfilled"],
  ["U5G A61U", "not fulfilled"],
  ["G21A A39U", "fulfilled"],
  ["U63C G69U", "not fulfilled"],
  ["A47U C65A", "not fulfilled"],
  ["G32A A49C", "not fulfilled"],
  ["G27A A71U", "fulfilled"],
  ["A36C U52G", "fulfilled"],
  ["G1U A47G", "not fulfilled"],
  ["A22G A26C", "fulfilled"]
]}
